src = paper PMC6523382

assay: Pharmacokinetics of metformin after oral administration in rats; conditions: rat, plasma, po, 50 mg/kg, Cmax, metformin 50 mg/kg PO, 1WRA of RGE 1.5 g/kg/day
Property name: Cmax
Include the unit right after the number.

Returns the measured Cmax for the input compound. Input: `CN(C)C(=N)N=C(N)N`
9900 ng/mL

###

test: Pharmacokinetics of metformin after oral administration in rats; settings: rat, plasma, po, 50 mg/kg, MRT, metformin 50 mg/kg PO, SA of RGE 1.5 g/kg
Property name: MRT (h)
// note: answer is a bare numeric in h

Returns the measured MRT for the input compound. Input: `CN(C)C(=N)N=C(N)N`
4.69

###

experiment: Pharmacokinetics of metformin after intravenous injection in rats; conditions: rat, plasma, iv, […], C0, metformin […] IV, SA of RGE 1.5 g/kg
Property name: C0
Include the unit right after the number.

Returns the measured C0 for the input compound. Input: `CN(C)C(=N)N=C(N)N`
1670 ng/mL

###

test: Pharmacokinetics of metformin after oral administration in rats; settings: rat, plasma, po, 50 mg/kg, AUC24h, metformin 50 mg/kg PO, Control
Property name: AUC(0-t) (ng·h/mL)
// note: answer is a bare numeric in ng·h/mL

Returns the measured AUC(0-t) for the input compound. Input: `CN(C)C(=N)N=C(N)N`
44300

###

experiment: Pharmacokinetics of metformin after oral administration in rats; conditions: rat, plasma, po, 50 mg/kg, Cmax, metformin 50 mg/kg PO, Control
Property name: Cmax (ng/mL)
// note: answer is a bare numeric in ng/mL

Returns the measured Cmax for the input compound. Input: `CN(C)C(=N)N=C(N)N`
6310

###

molecular target: OCT1 (Homo sapiens, UniProt O15245); experiment: Inhibition of OCT1-mediated [14C]metformin uptake in HEK293-OCT1 cells; type: cell-based; set-up: host or cells: HEK293
Sequence (O15245 whole entry): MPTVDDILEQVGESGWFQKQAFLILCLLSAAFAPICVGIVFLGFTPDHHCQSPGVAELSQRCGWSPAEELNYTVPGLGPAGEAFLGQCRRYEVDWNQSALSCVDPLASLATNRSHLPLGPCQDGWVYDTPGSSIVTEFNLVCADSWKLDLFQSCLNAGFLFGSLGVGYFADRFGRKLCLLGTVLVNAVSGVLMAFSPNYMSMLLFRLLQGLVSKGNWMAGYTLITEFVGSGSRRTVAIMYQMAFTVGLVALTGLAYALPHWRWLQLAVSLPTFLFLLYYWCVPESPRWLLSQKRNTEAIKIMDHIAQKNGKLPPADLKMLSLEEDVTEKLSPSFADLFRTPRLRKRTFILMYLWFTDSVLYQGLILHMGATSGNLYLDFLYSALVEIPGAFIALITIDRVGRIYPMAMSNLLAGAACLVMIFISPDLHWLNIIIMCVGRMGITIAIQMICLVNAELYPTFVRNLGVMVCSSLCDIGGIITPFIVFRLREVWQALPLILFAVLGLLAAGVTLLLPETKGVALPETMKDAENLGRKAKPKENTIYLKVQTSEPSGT
Property name: pIC50
Field pIC50 (float): negative decimal logarithm of the concentration in molar.

State its pIC50 on OCT1 (Homo sapiens, UniProt O15245): `CN/C(=N/CCSCc1nc[nH]c1C)NC#N`
4.21

###

experiment: Pharmacokinetics of metformin after intravenous injection in rats; details: rat, plasma, iv, […], AUC∞, metformin […] IV, SA of RGE 1.5 g/kg
Property name: AUC(0-inf)
Include the unit right after the number.

Returns the measured AUC(0-inf) for the input molecule. Input: `CN(C)C(=N)N=C(N)N`
1050 ng·h/mL

###

assay: Pharmacokinetics of metformin after oral administration in rats; conditions: rat, plasma, po, 50 mg/kg, MRT, metformin 50 mg/kg PO, 1WRA of RGE 1.5 g/kg/day
Property name: MRT
Include the unit right after the number.

Returns the measured MRT for the input compound. Input: CN(C)C(=N)N=C(N)N [metformin, Metformin]
4.64 h

###

experiment: Pharmacokinetics of metformin after intravenous injection in rats; conditions: rat, plasma, iv, […], MRT, metformin […] IV, 1WRA of RGE 1.5 g/kg/day
Property name: MRT

Returns the measured MRT for the input compound. Input: `CN(C)C(=N)N=C(N)N`
51 min

###

assay: Pharmacokinetics of metformin after oral administration in rats; settings: rat, plasma, po, 50 mg/kg, AUC24h, metformin 50 mg/kg PO, 1WRA of RGE 1.5 g/kg/day
Property name: AUC(0-t) (ng·h/mL)
// note: answer is a bare numeric in ng·h/mL

Returns the measured AUC(0-t) for the input compound. Input: `CN(C)C(=N)N=C(N)N`
57600
